target: 5-HT1A receptor (Homo sapiens, UniProt P08908); test: cAMP accumulation assay, 5-HT1A function; settings: cells marked EC50 (agonist)
Sequence (P08908 whole entry): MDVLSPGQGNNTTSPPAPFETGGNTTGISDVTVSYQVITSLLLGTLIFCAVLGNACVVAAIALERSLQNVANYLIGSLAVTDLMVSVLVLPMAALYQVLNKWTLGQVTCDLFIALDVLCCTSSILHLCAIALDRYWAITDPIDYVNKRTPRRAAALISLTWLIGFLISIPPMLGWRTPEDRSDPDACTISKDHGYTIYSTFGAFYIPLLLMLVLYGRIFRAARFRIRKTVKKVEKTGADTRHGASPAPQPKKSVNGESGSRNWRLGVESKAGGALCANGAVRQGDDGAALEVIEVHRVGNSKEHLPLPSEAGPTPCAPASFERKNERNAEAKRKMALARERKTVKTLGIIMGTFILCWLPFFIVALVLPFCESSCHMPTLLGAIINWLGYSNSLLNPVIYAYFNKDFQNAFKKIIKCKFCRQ
pEC50: −log10 of the molar value.
property_name: pEC50

Take a look at these entries with their results.
[
  {
    "compound": "NC(=O)c1cccc2c1CC(NCCCc1c[nH]c3ccc(F)cc13)CO2 (stereo not shown) [Compound 133]",
    "measured_target": "5-HT1A receptor (Homo sapiens, UniProt P08908)",
    "observed_result": 6.89
  },
  {
    "compound": "CCCN(CCCc1c[nH]c2ccc(F)cc12)C1COc2cccc(C(N)=O)c2C1 (stereo not shown) [Compound 150]",
    "measured_target": "5-HT1A receptor (Homo sapiens, UniProt P08908)",
    "observed_result": 8.91
  }
]

[A] CCCN(CCC(O)c1csc2ccc(F)cc12)C1COc2c(F)ccc(C(N)=O)c2C1 (stereo not shown) [Compound 17]
[B] CCCN(C1COc2cccc(OC)c2C1)[C@H]1CC[C@@H](c2c[nH]c3ccc(F)cc32)CC1 (relative stereo) [Compound 182]
Identify the entry with the smaller pEC50: A or B . Field: selected label. Fill in the label of the entry you choose.
B
(B: 6.73, A: 7.12)
